Source of measurements: PubChem BioAssay (NCI)

test system: BT-549 breast; assay: NCI tumour cell line growth inhibition, 48 h
parameter: TGI

Read the entry CC(C)=CCC[C@@H](C)C1=C(O)C(Nc2ccccc2Cl)=C(C)C(=O)C1=O and write its reported TGI.
> 75 µM

Read the entry COC(=O)/C=C1/OC(c2ccccc2)=C(C)C1=O and write its reported TGI.
8.45 µM

Read the entry CC1(C)CCCC(C)(C2CCC3(C)C2C(O)CC2C4(C)CCC(O)C(C)(C)C4CCC23C)O1 (stereo not drawn) and write its reported TGI.
> 100 µM

----------
tested on: IGROV1 ovarian; test: NCI tumour cell line growth inhibition, 48 h
parameter: GI50

Under IGROV1 ovarian, report GI50 for CC(=O)C1=C(O)C=C2Oc3c(C(=O)/C=C/c4cc(Cl)cc(Cl)c4)c(O)c(C)c(O)c3[C@]2(C)C1=O
0.673 µM

Under IGROV1 ovarian, report GI50 for COC(=O)c1oc2c(C(=O)/C=C/c3ccc(OC)cc3)c(OCCN(C)C)ccc2c1C
5.99 µM

Under IGROV1 ovarian, report GI50 for O=C1c2ccccc2-c2c1c1ccccc1c(=O)n2CCCNCCn1c2c(c3ccccc3c1=O)C(=O)c1ccccc1-2
2.63 µM

Under IGROV1 ovarian, report GI50 for C=CCC(N[C@@H](CO)c1ccccc1)c1cn(C(=O)OCC)c2ccccc12 (stereo not given in full)
23.1 µM

Under IGROV1 ovarian, report GI50 for C/C(=N\NC(=O)c1ccccc1O)c1cccc(/C(C)=N/NC(=O)c2ccccc2O)n1.O=S(=O)([O-])[O-].[Fe+2]
47.7 µM

----------
test system: MDA-MB-435; assay: NCI tumour cell line growth inhibition, 48 h
Assign TGI to each entry below.

Read the entry CCOC(=O)c1nc2ccc(C(F)(F)F)cc2nc1NCc1ccc(OC)c(OC)c1 and write its reported TGI.
> 100 µM

Read the entry CCOP(=O)(OCC)C(C(=O)OC)C(=O)C(=O)Nc1cccc(O)c1 (centres undefined) and write its reported TGI.
> 100 µM

Read the entry COC(=O)c1cc2c3ccccc3n3c2c(n1)-c1[nH]c2ccccc2c(=O)c1C3 and write its reported TGI.
> 100 µM

Read the entry CC(C)COc1nc2c(c(=O)n(C)c(=O)n2C)n1C and write its reported TGI.
> 100 µM

Read the entry O=C(CSCC(=O)N/N=C\c1cccc([N+](=O)[O-])c1)N/N=C\c1cccc([N+](=O)[O-])c1 and write its reported TGI.
> 100 µM

Read the entry CCCSc1ccc2[nH]c(N3C(=O)/C(=C/c4ccc(SC)cc4)N=C3c3ccccc3)cc2c1 and write its reported TGI.
21.2 µM

Read the entry CCC(C)[C@@H](Nc1c(O)c2c(c(O)c1Cl)C(=O)C=CC2=O)C(=O)OC (some centres undefined) and write its reported TGI.
> 10 µM

Read the entry O=C1CCc2ccc(O)c(c2)Oc2ccc(cc2)C(Sc2ccccc2)CCO1 (centres undefined) and write its reported TGI.
41.9 µM

Read the entry Cc1cc(Nc2cc(N3CCN(C)CC3)nc(/C=C/c3ccccc3)n2)n[nH]1 and write its reported TGI.
> 5.28 µM

Read the entry CC(C)C(OC(=O)c1ccc(NCC2=CC(=O)C=CC2=O)cc1)C(C)C and write its reported TGI.
17.9 µM

Read the entry N[C@@H]1CCN(c2c(F)cc3c(=O)c(C(=O)O)cn4c3c2Oc2cc3c(ccc5ccccc53)cc2-4)C1 and write its reported TGI.
> 100 µM

Read the entry CCOC(=O)c1nc2cc(C(F)(F)F)ccc2nc1Nc1ccc(C(=O)OC)s1 and write its reported TGI.
> 100 µM

Read the entry CN(C)N1C(=O)S/C(=C\c2ccc([N+](=O)[O-])cc2)C1=O and write its reported TGI.
> 100 µM

Read the entry O=C(c1ccc(Cl)cc1)C(O)c1ccc(Cl)cc1 (centres undefined) and write its reported TGI.
> 100 µM
